Hello, the source for this data is ChEMBL document CHEMBL3085730, in case you need it.

test system: Plasmodium falciparum; experiment: Antimalarial activity against ring-stage Plasmodium falciparum 3D7 assessed as schizonticidal activity after 42 hrs; assay type: functional, organism-based; conditions: 3D7, 42 h
IC50 less than 800 nM is Y; IC50 greater than or equal to 800 nM is N.

# count of solved cases: 6
- record smiles: "Cc1ccc(NC(=O)c2c(O)cc(-c3ccccc3)oc2=O)cc1"
  qualitative label: "N"
- record smiles: "Cc1ccc(NC(=O)c2c(N3CCCCC3)cc(-c3ccccc3)oc2=O)cc1"
  qualitative label: "N"
- record smiles: "O=C(Nc1ccc(F)cc1)c1c(O)cc(-c2ccccc2)oc1=O"
  qualitative label: "N"
- record smiles: "O=C(Nc1ccc(O)cc1)c1c(N2CCCCC2)cc(-c2ccccc2)oc1=O"
  qualitative label: "Y"
- record smiles: "O=C(Nc1ccc(Br)cc1)c1c(O)cc(-c2ccccc2)oc1=O"
  qualitative label: "Y"
- record smiles: "O=C(Nc1ccc(Br)cc1)c1c(N2CCCCC2)cc(-c2ccccc2)oc1=O"
  qualitative label: "Y"

For `COc1ccc(-c2cc(N3CCN(C)CC3)c(C(=O)Nc3ccc(O)cc3)c(=O)o2)cc1` , is the recorded IC50 below the cut-off of 800 nM?
N

---

test system: Plasmodium falciparum; experiment: Parasitocidal activity against ring-stage Plasmodium falciparum 3D7 assessed as minimum killing concentration incubated for 42 hrs followed by compound washout measured 72 hrs post infection in hematocrit; assay type: functional
measure name: Activity (µM)
# output: bare number, implied unit µM

Examples with their reported Activity follow.
- record smiles: "Cc1ccc(NC(=O)c2c(N3CCCCC3)cc(-c3ccccc3)oc2=O)cc1"
  unit annotation: "µM"
  Activity: 1
- record smiles: "O=C(Nc1ccc(Br)cc1)c1c(O)cc(-c2ccccc2)oc1=O"
  unit annotation: "µM"
  Activity: 3.9
- record smiles: "O=C(Nc1ccc(O)cc1)c1c(N2CCCCC2)cc(-c2ccccc2)oc1=O"
  unit annotation: "µM"
  Activity: 1.99
- record smiles: "O=C(Nc1ccc(F)cc1)c1c(O)cc(-c2ccccc2)oc1=O"
  unit annotation: "µM"
  Activity: 2.39
- record smiles: "O=C(Nc1ccc(Br)cc1)c1c(N2CCCCC2)cc(-c2ccccc2)oc1=O"
  unit annotation: "µM"
  Activity: 0.21

# next compound below
Quick one: Activity of `Cc1ccc(NC(=O)c2c(O)cc(-c3ccccc3)oc2=O)cc1` ?
38.9
